- Test system: CAKI-1
- Experiment Summary: NCI tumour cell line growth inhibition, 48 h
The source made the active and inactive calls. Rule as the data show it: active = GI50 up to about 1.1 µM and inactive = higher.
Parameter: GI50

For orientation, consider the following solved cases.
GI50 lookup needed for CC(C)(C)c1cc(C(O)(C(F)(F)F)C(F)(F)F)c2c(c1)C(C(F)(F)F)(C(F)(F)F)OC(C)(C(C)(C)C)N2 (stereo not drawn) , thanks.
3.04 µM (inactive)

GI50 lookup needed for Fc1ccc(NCn2nc(COc3ccccc3Cl)n(/N=C/c3ccc(-c4ccc(Cl)cc4Cl)o3)c2=S)cc1Cl , thanks.
34.4 µM (inactive)

GI50 lookup needed for CSC[S+]([O-])C[C@H](CO)NC(=O)/C=C/c1c(C)[nH]c(=O)[nH]c1=O (stereo partly drawn) , thanks.
1.65 µM (inactive)

GI50 lookup needed for O=C(O)Cc1ccccc1 [PHENYLACETIC ACID] , thanks.
> 100 µM (inactive)

GI50 lookup needed for COc1cc(OC)c(Oc2cccc(OC)c2OC)c(OC)c1 , thanks.
> 100 µM (inactive)

GI50 lookup needed for Cc1cc(C)c(-c2noc(-c3ccc(Cl)cc3)c2C2=NCCCN2)c(C)c1 , thanks.
> 100 µM (inactive)

GI50 lookup needed for Cn1cnc([N+](=O)[O-])c1Sc1n[nH]c(-c2ccc(Cl)cc2)n1 , thanks.
25.1 µM (inactive)

We now examine a further compound.
GI50 lookup needed for Fc1ccc(Oc2nc3ccccc3nc2-c2ccccc2)cc1 , thanks.
> 100 µM (inactive)

All values here come from ChEMBL document CHEMBL1201862.
